Reported pEC50 values for the following compounds.
Molecular target: LXRβ full length (FL) (Homo sapiens, UniProt P55055, INS174Q)
Construct: the full length (FL) proteins of LXRα (amino acids 1-447); NP005684; NP009052; expressed in transfected cells; host or cells: HEK293
Sequence (P55055 with tags, fused parts or gaps INS174Q): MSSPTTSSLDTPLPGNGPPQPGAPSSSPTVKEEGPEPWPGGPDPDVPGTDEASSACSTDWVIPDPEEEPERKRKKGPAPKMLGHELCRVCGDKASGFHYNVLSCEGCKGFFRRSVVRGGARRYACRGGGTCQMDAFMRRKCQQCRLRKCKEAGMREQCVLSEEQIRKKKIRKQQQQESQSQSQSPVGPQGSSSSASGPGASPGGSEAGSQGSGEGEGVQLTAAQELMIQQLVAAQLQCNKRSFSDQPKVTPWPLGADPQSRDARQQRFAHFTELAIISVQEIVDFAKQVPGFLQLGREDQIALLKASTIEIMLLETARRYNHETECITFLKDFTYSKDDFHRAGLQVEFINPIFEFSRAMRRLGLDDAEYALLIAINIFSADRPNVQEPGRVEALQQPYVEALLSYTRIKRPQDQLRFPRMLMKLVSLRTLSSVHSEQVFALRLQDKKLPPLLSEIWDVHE
Test: LXR Gal4 reporter transient transfection assay, mammalian two-hybrid, FL-M2H Gal4β
Assay type: cell-based
Conditions: HEK293 cells; inverse agonist unless *
pEC50: −log10 of the molar value.

Here are 5 compounds together with their reported answers.
Cc1cc(F)cc(C)c1C(=O)N(Cc1ccc(-c2cccc(C(C)(C)C(=O)O)c2)cc1)Cc1ccc(C(F)(F)F)o1 [27/49] :: > 7.00
Cc1nc2ccccc2c(C(=O)N(Cc2ccc(-c3cccc(C(C)(C)C(=O)O)c3)cc2)Cc2ccc(C(F)(F)F)o2)c1C [27/79] :: > 7.00
Cc1cc(C)c(CN(Cc2ccc(-c3cccc(C(C)(C)C(=O)O)c3)cc2)Cc2ccc(C(F)(F)F)o2)c(C)c1 [Example 10] :: 6.00 to 7.00
Cc1nc2ccccc2c(C(=O)N(Cc2ccc(C(F)(F)F)o2)Cc2ncc(-c3cccc(C(C)C(=O)O)c3)cc2Cl)c1C (stereo not shown) [27/90] :: > 7.00
CC(C)(C(=O)O)c1cccc(-c2ccc(CN(Cc3ccc(C(F)(F)F)o3)C(C)(C)c3cccc4ccccc34)cc2)c1 [27/39] :: > 7.00

Form: Entry = COC(C)(C(=O)O)c1cccc(-c2ccc(CN(Cc3ccc(C(F)(F)F)o3)C(=O)c3c(C)ccc4ccccc34)cc2)c1 (stereo not shown) [27/11] | System = LXRβ full length (FL) (Homo sapiens, UniProt P55055, INS174Q) | pEC50 = ____
> 7.00

Notebook entry, LXRβ full length (FL) (Homo sapiens, UniProt P55055, INS174Q) assay: pEC50 of COCc1c(C)cc(C)c(C(=O)N(Cc2ccc(-c3cccc(C(C)(C)C(=O)O)c3)cc2)Cc2ccc(C(F)(F)F)o2)c1C [27/50] = ?
> 7.00

Look up pEC50 with LXRβ full length (FL) (Homo sapiens, UniProt P55055, INS174Q) for this compound: Cc1ccc2ccccc2c1C(=O)N(Cc1ccc(-c2cccc(C(C)(C)C(=O)O)c2)cc1)Cc1ccc(C#N)o1 [27/38]
> 7.00

Lab note: need pEC50 with LXRβ full length (FL) (Homo sapiens, UniProt P55055, INS174Q) for entry CC(C)(C(=O)O)c1cccc(-c2ccc(CN(Cc3ccc(C(F)(F)F)o3)C(=O)c3cc(C4CC4)nc4ccccc34)cc2)c1 [27/129] , please look it up.
> 7.00

Please provide the recorded pEC50 for Cc1ccc2ccccc2c1C(=O)N(Cc1ccc(C(F)(F)F)o1)C1COc2cc(-c3cccc(C(C)(C)C(=O)O)c3)ccc21 (stereo not shown) [27/4] , tested on LXRβ full length (FL) (Homo sapiens, UniProt P55055, INS174Q).
6.00 to 7.00
